- testedOn: Tubulin (Bos taurus, UniProt Q6B856+Q862L2+Q862F3)
- assayOverview: Ability to inhibit Tubulin polymerization in Bovine brain
- Assay type: functional, tissue-based
measuredAttribute: log10 of IC50 (log10 of the value in µM)

# structureString, testedOn, log10 of IC50
rows = [
    ("COc1cc(/C=C\\c2ccc(Br)cc2)cc(OC)c1OC", "Tubulin (Bos taurus, UniProt Q6B856+Q862L2+Q862F3)", 0.49),
    ("COc1cc(CCc2ccc(N(C)C)cc2)cc(OC)c1OC", "Tubulin (Bos taurus, UniProt Q6B856+Q862L2+Q862F3)", 1.46),
    ("COc1cc(/C=C\\c2ccccc2)cc(OC)c1OC", "Tubulin (Bos taurus, UniProt Q6B856+Q862L2+Q862F3)", 1.56),
    ("COc1ccc(CCc2cc(OC)c(OC)c(OC)c2)cc1O", "Tubulin (Bos taurus, UniProt Q6B856+Q862L2+Q862F3)", 0.52),
    ("COc1ccc(/C=C\\c2cc(OC)c(OC)c(OC)c2)cc1", "Tubulin (Bos taurus, UniProt Q6B856+Q862L2+Q862F3)", 0.34),
    ("COc1ccc(CCc2cc(OC)c(OC)c(OC)c2)cc1", "Tubulin (Bos taurus, UniProt Q6B856+Q862L2+Q862F3)", 0.90),
    ("COc1ccc(/C=C\\c2cc(OC)c(OC)c(OC)c2)c(Cl)c1", "Tubulin (Bos taurus, UniProt Q6B856+Q862L2+Q862F3)", 0.54),
    ("COc1ccc(NCc2cc(OC)c(OC)c(OC)c2)cc1", "Tubulin (Bos taurus, UniProt Q6B856+Q862L2+Q862F3)", 1.36),
    ("COc1cccc(/C=C\\c2cc(OC)c(OC)c(OC)c2)c1", "Tubulin (Bos taurus, UniProt Q6B856+Q862L2+Q862F3)", 0.94),
    ("COc1cc(/C=C\\c2ccc(N(C)C)cc2)cc(OC)c1OC", "Tubulin (Bos taurus, UniProt Q6B856+Q862L2+Q862F3)", 0.53),
    ("COc1cc(/C=C\\c2ccc(OC(C)=O)cc2)cc(OC)c1OC", "Tubulin (Bos taurus, UniProt Q6B856+Q862L2+Q862F3)", 1.46),
    ("COc1cc(/C=C\\c2ccc(Cl)cc2)cc(OC)c1OC", "Tubulin (Bos taurus, UniProt Q6B856+Q862L2+Q862F3)", 0.68),
    ("COc1ccc(NCc2cc(OC)cc(OC)c2)cc1", "Tubulin (Bos taurus, UniProt Q6B856+Q862L2+Q862F3)", 1.46),
]

---

Catalogue of EC50 values
- Tested on: A549
- assayOverview: Cytotoxic concentration required to inhibit 50% cell growth in A-549 lung carcinoma cell lines
- Format: functional
- reportedConditions: Homo sapiens, read-out: ED50 (the source's name)
measuredAttribute: EC50

# structureString, val
measured = [
    ("COc1ccc(/C=C\\c2ccc(OC)c(OC)c2OC)cc1", "0.97 µM"),
    ("COc1cc(OC)c(OC)cc1/C=C/c1ccccc1", "> 25 µM"),
    ("COc1cc(CCc2ccc(O)cc2)cc(OC)c1OC", "> 25 µM"),
    ("COc1cc(/C=C/c2ccc(O)cc2)cc(OC)c1OC", "> 25 µM"),
    ("COc1cc(/C=C\\c2cccnc2)cc(OC)c1OC", "13.7 µM"),
    ("COc1cc(CCc2ccccc2)cc(OC)c1OC", "> 25 µM"),
    ("COc1cc(/C=C\\c2ccc([N+](=O)[O-])cc2)cc(OC)c1OC", "> 25 µM"),
    ("COc1cc(/C=C\\c2ccc(N(C)C)cc2)cc(OC)c1OC", "0.0041 µM"),
    ("COc1cc(/C=C/c2cc(OC)c(OC)c(OC)c2)cc(OC)c1OC", "> 25 µM"),
    ("COc1cc(/C=C/c2ccc(N)cc2)cc(OC)c1OC", "> 25 µM"),
    ("COc1cc(CCc2cc(OC)c(OC)c(OC)c2)cc(OC)c1", "> 25 µM"),
    ("COc1cccc(/C=C/c2cc(OC)c(OC)c(OC)c2)c1", "9.8 µM"),
]

---

- Tested on: MCF7
- assayOverview: Cytotoxic concentration required to inhibit 50% cell growth in MCF-7 breast carcinoma cell lines
- Type: functional
- reportedConditions: Homo sapiens, read-out: ED50 (the source's name)

# structureString, unitsOfMeasure, censoringOperator, EC50
rows = [
    ("COc1cc(/C=C/c2ccc(N(C)C)cc2)cc(OC)c1OC", "µM", "=", 0.082),
    ("COc1cc(/C=C/c2ccc(Br)cc2)cc(OC)c1OC", "µM", "=", 9.14),
    ("COc1cc(/C=C/c2ccc([N+](=O)[O-])cc2)cc(OC)c1OC", "µM", ">", 25),
    ("COc1cc(OC)c(OC)cc1CCc1cc(OC)c(OC)c(OC)c1", "µM", ">", 25),
    ("COc1ccc(NCc2cc(OC)cc(OC)c2)cc1", "µM", "=", 6.08),
    ("COc1ccc(CCc2cc(OC)c(OC)c(OC)c2)cc1O", "µM", "=", 0.33),
    ("COc1ccc(/C=C/c2ccccc2)cc1OC", "µM", ">", 25),
    ("COc1cc(/C=C\\c2cccnc2)cc(OC)c1OC", "µM", "=", 14.7),
    ("COc1cc(/C=C/c2ccc(N)cc2)cc(OC)c1OC", "µM", ">", 25),
    ("COc1cc(/C=C/c2ccc(O[Si](C)(C)C(C)(C)C)cc2)cc(OC)c1OC", "µM", ">", 25),
    ("COc1cc(/C=C/c2ccccn2)cc(OC)c1OC", "µM", ">", 25),
    ("COc1ccc(CNc2cc(OC)c(OC)c(OC)c2)cc1OC", "µM", ">", 25),
    ("COc1ccc(/C=C\\c2ccc(OC)c(OC)c2OC)cc1", "µM", "=", 0.23),
    ("COc1cc(/C=C/c2ccc(Cl)cc2)cc(OC)c1OC", "µM", ">", 25),
    ("COc1cc(/C=C\\c2ccncc2)cc(OC)c1OC", "µM", "=", 17),
    ("COc1cc(CCc2cccnc2)cc(OC)c1OC", "µM", ">", 25),
    ("COc1ccc(CNc2cc(OC)c(OC)c(OC)c2)cc1", "µM", "=", 0.86),
    ("COc1cc(/C=C\\c2ccc(Br)cc2)cc(OC)c1OC", "µM", "=", 0.016),
    ("COc1ccc(NC(=O)c2cc(OC)cc(OC)c2)cc1", "µM", "=", 5.47),
    ("COc1cc(CCc2ccc(NC(C)=O)cc2)cc(OC)c1OC", "µM", ">", 25),
    ("COc1cc(/C=C/c2cc(OC)c(OC)c(OC)c2)cc(OC)c1", "µM", ">", 25),
    ("COc1cc(CCc2ccc(N)cc2)cc(OC)c1OC", "µM", "=", 11.9),
    ("COc1cc(/C=C/c2ccc(OC)c(OC)c2OC)cc(OC)c1OC", "µM", "=", 14.7),
    ("COc1cc(CCc2ccncc2)cc(OC)c1OC", "µM", ">", 25),
    ("COc1cc(/C=C/c2cccnc2)cc(OC)c1OC", "µM", ">", 25),
]

---

- Test system: A549
- assayOverview: Cytotoxic concentration required to inhibit 50% cell growth in A-549 lung carcinoma cell lines
- Type: functional
- reportedConditions: Homo sapiens, read-out: ED50 (the source's name)

# structureString, censoringOperator, EC50, µM
records = [
    ("COc1ccc(NCc2cc(OC)c(OC)c(OC)c2)cc1", "=", 0.0019),
    ("COc1cc(CCc2ccncc2)cc(OC)c1OC", ">", 25),
    ("COc1ccc(CCc2cc(OC)c(OC)c(OC)c2)cc1O", "=", 0.01),
    ("COc1ccc(C(=O)Nc2cc(OC)c(OC)c(OC)c2)cc1", ">", 25),
    ("COc1cc(/C=C\\c2ccc(Cl)cc2)cc(OC)c1OC", "=", 0.08),
    ("COc1ccc(CNc2cc(OC)c(OC)c(OC)c2)cc1OC", ">", 25),
    ("COc1cc(CCc2ccc(OC)c(OC)c2OC)cc(OC)c1OC", ">", 25),
    ("COc1cc(/C=C\\c2ccccc2)cc(OC)c1OC", "=", 0.17),
    ("COc1cc(/C=C/c2ccncc2)cc(OC)c1OC", ">", 25),
    ("COc1cc(/C=C\\c2ccncc2)cc(OC)c1OC", "=", 14.2),
    ("COc1cc(CCc2ccc(OC(C)=O)cc2)cc(OC)c1OC", "=", 19),
    ("COc1ccc(CCc2ccccc2)cc1OC", ">", 25),
    ("COc1cc(/C=C/c2ccc(OC)c(OC)c2OC)cc(OC)c1OC", "=", 12.5),
    ("COc1ccccc1/C=C/c1cc(OC)c(OC)c(OC)c1", "=", 12.2),
    ("COc1cc(/C=C\\c2ccc(O[Si](C)(C)C(C)(C)C)cc2)cc(OC)c1OC", "=", 11),
    ("COc1cc(/C=C/c2ccccn2)cc(OC)c1OC", ">", 25),
    ("COc1ccc(NC(=O)c2cc(OC)c(OC)c(OC)c2)cc1", "=", 14.1),
    ("COc1cc(/C=C/c2ccc(O[Si](C)(C)C(C)(C)C)cc2)cc(OC)c1OC", ">", 25),
    ("COc1ccc(CCc2cc(OC)c(OC)c(OC)c2)cc1", "=", 0.00018),
    ("COc1ccc(/C=C/c2ccccc2)cc1OC", ">", 25),
    ("COc1ccc(CNc2cc(OC)cc(OC)c2)cc1", ">", 25),
    ("COc1cc(/C=C/c2cccnc2)cc(OC)c1OC", ">", 25),
    ("COc1ccc(/C=C\\c2cc(OC)c(OC)c(OC)c2)cc1", "=", "2.2e-05"),
    ("COc1ccccc1/C=C\\c1cc(OC)c(OC)c(OC)c1", "=", 1.1),
    ("COc1cccc(/C=C\\c2cc(OC)c(OC)c(OC)c2)c1", "=", 0.13),
]
